Source listed as patent US9809604B2.

assay: Plasma pharmacokinetics in male SD rats; format: in vivo; details: male, SD, plasma; rat, iv, 1.78-2.06 mg/kg as printed in each cell; read-out: AUC0-1 (ng · n/mL)
measurement-label: AUC(0-t) (ng·h/mL)

compound	quantity-unit	observed
Nc1ncnc2c1C(=O)N(c1ccc([C@H]3CC[C@H](CC(=O)O)CC3)cc1)CCO2 [PF-04620110, reference compound]	ng·h/mL	2920

I: Cc1cc(N2CCOc3ncnc(N)c3C2=O)cc(C)c1-c1ccc2ccn(CC(F)(F)F)c(=O)c2c1
II: O=C(O)C[C@H]1CC[C@H](c2ccc(-c3ccc(Nc4ccc(C(F)(F)F)nc4)cn3)cc2)CC1 [Pradigastat, reference compound]
III: Cc1cc(N2CCOc3ncnc(N)c3C2=O)cc(C)c1-c1cn(CC(F)(F)F)nc1C
Query: # desc sort on AUC(0-t) across 3 compounds In your reply, arrange the labels in the requested order.
Response: II, I, III

====

assay: Plasma pharmacokinetics in male SD rats; format: in vivo; conditions: male, SD, plasma; rat, iv, 1.78-2.06 mg/kg as printed in each cell; read-out: T1/2 (b) (converted)
measurement-label: half-life (h)

P: O=C(O)C[C@H]1CC[C@H](c2ccc(-c3ccc(Nc4ccc(C(F)(F)F)nc4)cn3)cc2)CC1 [Pradigastat, reference compound]
Q: Cc1cc(N2CCOc3ncnc(N)c3C2=O)cc(C)c1-c1ccc2ccn(CC(F)(F)F)c(=O)c2c1
Query: Consider entries P and Q . Which has the numerically lower half-life? Selection: enter the item's label.
Response: P
(P: 2.19 h, Q: 3.81 h)

====

target: UniProt O75907; assay: Human DGAT1 IC50 enzyme assay (Flashplate, 14C-labeled acyl-CoA); format: biochemical; design: made in house; conditions: first determination; read-out: hDGAT1 IC50(nM) First
measurement-label: IC50 (nM)

Before answering, review these 3 worked examples.
molecule	IC50, nM
CC(C)(CO)Cn1cc(-c2ccc(N3CCOc4ncnc(N)c4C3=O)cc2Cl)cn1 [Compound 44]	59.5
Cc1cc(N2CCOc3ncnc(N)c3C2=O)cc(C)c1-c1ccc2ccn(CC(F)(F)F)c(=O)c2c1 [Compound 105]	27
Nc1ncnc2c1C(=O)N(c1ccc(-c3cn(CC(=O)O)nc3C(F)(F)F)cc1)CCO2 [Compound 39]	72.9

a: Nc1ncnc2c1C(=O)N(c1ccc(-n3ccn(CC(=O)O)c3=O)c(Cl)c1)CCO2 [Compound 28]
b: CC(C(=O)O)n1cc(-c2ccc(N3CCOc4ncnc(N)c4C3=O)cc2Cl)cn1 (stereo not shown) [Compound 34]
c: CCC(C(=O)O)n1cc(-c2ccc(N3CCOc4ncnc(N)c4C3=O)cc2Cl)cn1 (stereo not shown) [Compound 61]
Query: Sort the molecules on IC50; start with the lowest figure. Provide your answer as the labels ordered per the instruction.
Response: c, a, b
(c: 28.2 nM, a: 45.6 nM, b: 78 nM)

====

target: DGAT1 (Homo sapiens, UniProt O75907); assay: Human DGAT1 IC50 enzyme assay (Flashplate, 14C-labeled acyl-CoA); type: biochemical; set-up: made in house; details: second determination; read-out: hDGAT1 IC50(nM) Second
Sequence (O75907 whole entry): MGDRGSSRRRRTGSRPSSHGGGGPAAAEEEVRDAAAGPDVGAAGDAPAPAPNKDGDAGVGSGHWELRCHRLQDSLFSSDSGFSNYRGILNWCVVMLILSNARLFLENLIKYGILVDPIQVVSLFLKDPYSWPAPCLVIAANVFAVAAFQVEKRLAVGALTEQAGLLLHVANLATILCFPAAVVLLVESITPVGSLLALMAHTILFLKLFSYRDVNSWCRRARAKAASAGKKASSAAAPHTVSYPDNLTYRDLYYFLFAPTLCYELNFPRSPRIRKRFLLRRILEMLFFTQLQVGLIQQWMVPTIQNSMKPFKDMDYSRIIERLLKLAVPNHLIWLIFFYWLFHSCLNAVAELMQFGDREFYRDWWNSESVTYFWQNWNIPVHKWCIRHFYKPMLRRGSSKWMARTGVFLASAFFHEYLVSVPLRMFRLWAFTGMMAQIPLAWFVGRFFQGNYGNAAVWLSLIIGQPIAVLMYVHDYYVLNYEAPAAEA
measurement-label: IC50 (nM)

compound	IC50 [nM]
CC(C)(C(=O)O)n1cc(-c2ccc(N3CCOc4ncnc(N)c4C3=O)cc2Cl)cn1	46.7

a: Nc1ncnc2c1C(=O)N(c1ccc(N3CCN(CC(=O)O)C3=O)c(OC(F)(F)F)c1)CCO2
b: Cc1cc(N2CCOc3ncnc(N)c3C2=O)ccc1N1CCN(CC(=O)O)C1=O
Query: Of the pair a and b , name the member with the lesser recorded IC50. Identify your selection by its label.
Response: a
(a: 30.4 nM, b: 69.5 nM)

P: Cc1nn(CCC(=O)O)cc1-c1ccc(N2CCOc3ncnc(N)c3C2=O)cc1Cl
Q: CC(C)Cn1cc(-c2ccc(N3C[C@@H](C)Oc4ncnc(N)c4C3=O)cc2Cl)cn1
R: CC(C)(C)Cn1cc(-c2ccc(N3CCOc4ncnc(N)c4C3=O)cc2Cl)cn1
Query: Sequence the entries by IC50, beginning with the highest number. Return value: ordered labels per request.
Response: P, R, Q
(P: 40.3 nM, R: 24.4 nM, Q: 14.6 nM)

P: CC(C(=O)O)n1cc(-c2ccc(N3CCOc4ncnc(N)c4C3=O)cc2Cl)cn1 (stereo not shown)
Q: Nc1ncnc2c1C(=O)N(c1ccc(N3CCN(CC(=O)O)C3=O)c(C(F)(F)F)c1)CCO2
Query: Form field 'greater IC50' accepts P or Q ; which applies? Please reply using the label of the selected record.
Response: Q
(Q: 60.7 nM, P: 33.6 nM)

P: CCC(C(=O)O)n1cc(-c2ccc(N3CCOc4ncnc(N)c4C3=O)cc2Cl)cn1 (stereo not shown)
Q: Cc1cc(N2CCOc3ncnc(N)c3C2=O)ccc1-c1cnn(CC(=O)O)c1
R: Cc1cc(N2CCOc3ncnc(N)c3C2=O)cc(C)c1-c1cn(CC(F)(F)F)nc1C
Query: Task field, ranking: reported IC50, descending order. Put the labels in the order asked and list them.
Response: Q, P, R
(Q: 102 nM, P: 47.4 nM, R: 30 nM)

a: Cc1cc(N2CCOc3ncnc(N)c3C2=O)cc(C)c1-c1ccc2ccn(CC(F)(F)F)c(=O)c2c1
b: Nc1ncnc2c1C(=O)N(c1ccc(-c3cnn(CCC(=O)O)c3)c(F)c1)CCO2
Query: Please compare: a and b . Report which one has the smaller IC50 value. Please reply using the label of the selected record.
Response: a
(a: 36.4 nM, b: 74.5 nM)
